Data provenance: patent US10981911B2

# System name: Tyk2-JH1JH2 (Homo sapiens (Human), UniProt P29597, C1142A/C936A)
# Sequence (P29597 580-1182 C936A/C1142A): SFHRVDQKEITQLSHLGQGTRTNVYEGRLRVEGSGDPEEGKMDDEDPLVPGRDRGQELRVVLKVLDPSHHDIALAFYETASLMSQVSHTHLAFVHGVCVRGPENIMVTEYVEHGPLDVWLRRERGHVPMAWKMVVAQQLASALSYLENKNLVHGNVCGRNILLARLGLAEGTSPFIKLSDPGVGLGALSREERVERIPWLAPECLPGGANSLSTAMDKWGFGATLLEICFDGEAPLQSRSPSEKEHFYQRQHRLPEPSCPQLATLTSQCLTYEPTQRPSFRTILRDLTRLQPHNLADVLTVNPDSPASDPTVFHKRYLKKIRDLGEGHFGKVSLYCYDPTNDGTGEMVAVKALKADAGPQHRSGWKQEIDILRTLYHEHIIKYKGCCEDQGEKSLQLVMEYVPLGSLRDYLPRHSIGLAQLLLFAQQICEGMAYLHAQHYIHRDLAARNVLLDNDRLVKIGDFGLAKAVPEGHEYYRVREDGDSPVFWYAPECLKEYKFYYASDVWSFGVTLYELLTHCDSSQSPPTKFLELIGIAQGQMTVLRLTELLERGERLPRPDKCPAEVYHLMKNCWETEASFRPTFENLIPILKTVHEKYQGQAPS
# Assay remarks: Enzymatic inhibition assay (RapidFire HTMS), Tyk2
# Protocol conditions: 50 μM ATP, 200 μM substrate
Would you kindly list pIC50 for each of these compounds?
Schema: pIC50 number; meaning minus log10 of the concentration expressed in molar units.

Reported pIC50 ( C#Cc1ccc(C(=O)c2ccc(COCc3nc4cnc5[nH]ccc5c4n3[C@H]3CC[C@H](CC#N)CC3)cc2)cc1 [Ex. 126] ) = 7.85

Reported pIC50 ( N#CC[C@H]1CC[C@H](n2c(CC(=O)NCC(O)CO)nc3cnc4[nH]ccc4c32)CC1 (some centres unmarked) [Ex. 106] ) = 7.95

Reported pIC50 ( N#CC[C@H]1CC[C@H](n2c(-c3nc[nH]n3)nc3cnc4[nH]ccc4c32)CC1 [Ex. 9] ) = 8.80

Reported pIC50 ( CC(=N)NCc1nc2cnc3[nH]ccc3c2n1[C@H]1CC[C@H](CC#N)CC1 [Ex. 86] ) = 8.59

Reported pIC50 ( N#CC[C@H]1CC[C@H](n2c(CNC(=O)Nc3ccccc3)nc3cnc4[nH]ccc4c32)CC1 [Ex. 70] ) = 8.03

Reported pIC50 ( N#CC[C@H]1CC[C@H](n2c(C(=O)N3CCC(O)(c4ccccn4)CC3)nc3cnc4[nH]ccc4c32)CC1 [Ex. 88] ) = 7.31

Reported pIC50 ( CC(C)NC(=O)NCc1nc2cnc3[nH]ccc3c2n1[C@H]1CC[C@H](CC#N)CC1 [Ex. 171] ) = 7.73

Reported pIC50 ( N#CC[C@H]1CC[C@H](n2c(CC(=O)N3CCC(O)CC3)nc3cnc4[nH]ccc4c32)CC1 [Ex. 12] ) = 8.85

Reported pIC50 ( CC(C)(C)COC(=O)NCc1nc2cnc3[nH]ccc3c2n1[C@H]1CC[C@H](CC#N)CC1 [Ex. 154] ) = 7.79

Reported pIC50 ( CC(C)(C)C/C(=N/O)NCc1nc2cnc3[nH]ccc3c2n1[C@H]1CC[C@H](CC#N)CC1 [Ex. 101] ) = 8.17

Reported pIC50 ( N#CC[C@H]1CC[C@H](n2c(CC(=O)NC3CCSCC3)nc3cnc4[nH]ccc4c32)CC1 [Ex. 83] ) = 8.03

Reported pIC50 ( CC(C)(C)OC(=O)NCc1nc2cnc3[nH]ccc3c2n1[C@H]1CC[C@H](CC#N)CC1 [Ex. 158] ) = 7.23

Reported pIC50 ( N#CC[C@H]1CC[C@H](n2c(-c3ccc(C#N)cc3)nc3cnc4[nH]ccc4c32)CC1 [Ex. 96] ) = 7.30

Reported pIC50 ( N#CC[C@H]1CC[C@H](n2c(-c3cnn(Cc4cocn4)c3)nc3cnc4[nH]ccc4c32)CC1 [Ex. 166] ) = 7.43

Reported pIC50 ( COCCOCCOCCOCCc1nc2cnc3[nH]ccc3c2n1[C@H]1CC[C@H](CC#N)CC1 [Ex. 192] ) = 7.59

Reported pIC50 ( Cc1cc(-c2nc3cnc4[nH]ccc4c3n2[C@H]2CC[C@H](CC#N)CC2)[nH]n1 [Ex. 81] ) = 8.22

Reported pIC50 ( N#CC[C@H]1CC[C@H](n2c(CC(=O)NCc3ccc(F)cc3)nc3cnc4[nH]ccc4c32)CC1 [Ex. 45] ) = 7.91

Reported pIC50 ( CC(C)NC(=O)c1nc2cnc3[nH]ccc3c2n1[C@H]1CC[C@H](CC#N)CC1 [Ex. 172] ) = 7.27

Reported pIC50 ( N#CC[C@H]1CC[C@H](n2c(C(=O)NC3CC3)nc3cnc4[nH]ccc4c32)CC1 [Ex. 175] ) = 7.31

Reported pIC50 ( N#CC[C@H]1CC[C@H](n2c(COC(=O)NC34CC5CC(CC(C5)C3)C4)nc3cnc4[nH]ccc4c32)CC1 [Ex. 196] ) = 7.38

Reported pIC50 ( COCCCNC(=O)c1nc2cnc3[nH]ccc3c2n1[C@H]1CC[C@H](CC#N)CC1 [Ex. 173] ) = 7.25

Reported pIC50 ( N#CC[C@H]1CC[C@H](n2c(CNC(=O)c3ccccc3)nc3cnc4[nH]ccc4c32)CC1 [Ex. 148] ) = 7.44

Reported pIC50 ( N#CC[C@H]1CC[C@H](n2c(Cc3cscn3)nc3cnc4[nH]ccc4c32)CC1 [Ex. 41] ) = 9.22
